# Tested on: SARS-CoV-2
# TEST_NAME: Antiviral activity against SARS-CoV-2 USA-WA1/2020 infected in human HeLa cells harbouring ACE2 assessed as reduction in cytopathic effect pretreated with cells followed by viral infection and measured after 24 hrs by fluorescence based analysis
# Type: functional, organism-based
# EXPERIMENTAL_CONTEXT: Severe acute respiratory syndrome coronavirus 2, USA-WA1/2020, HeLa
Class assignment keyed on EC50, ranges bin 1 (below 400 nM), bin 2 (400 nM to below 1000 nM), bin 3 (1000 nM or more)

For orientation, consider the following solved cases.
CCc1cccc2[nH]c(C(=O)N3C[C@H]4[C@@H]([C@H]3C(=O)N[C@H](C=O)C[C@@H]3CCNC3=O)C4(C)C)cc12    bin 2
CC1(C)[C@@H]2[C@@H](C(=O)N[C@H](C=O)C[C@@H]3CCNC3=O)N(C(=O)c3cc4c(C#N)cccc4[nH]3)C[C@@H]21    bin 3
Cc1cccc2cc(C(=O)N3C[C@H]4[C@@H]([C@H]3C(=O)N[C@H](C=O)C[C@@H]3CCNC3=O)C4(C)C)[nH]c12    bin 3

Field: next compound
# bin lookup: classify "CC1(C)[C@@H]2[C@@H](C(=O)N[C@H](C=O)C[C@@H]3CCNC3=O)N(C(=O)c3cc4ccccc4[nH]3)C[C@@H]21" by its EC50 bin 3

---

I'd appreciate it if you could supply EC50 values for the items below.
# Tested on: SARS-CoV-2
# TEST_NAME: Antiviral activity against SARS-CoV-2 USA-WA1/2020 infected in human HeLa cells harbouring ACE2 assessed as reduction in cytopathic effect pretreated with cells followed by viral infection and measured after 24 hrs by fluorescence based analysis
# Type: functional, organism-based
# EXPERIMENTAL_CONTEXT: Severe acute respiratory syndrome coronavirus 2, USA-WA1/2020, HeLa
Give bare numbers, in nM.

Would you please look over these solved cases?
COc1cccc2cc(C(=O)N3C[C@H]4[C@@H]([C@H]3C(=O)N[C@H](C=O)C[C@@H]3CCNC3=O)C4(C)C)[nH]c12    1300
CC(C)(C)CC(=O)N1C[C@H]2[C@@H]([C@H]1C(=O)N[C@H](C=O)C[C@@H]1CCNC1=O)C2(C)C    1100
O=C[C@H](C[C@@H]1CCNC1=O)NC(=O)[C@@H]1CC2(CC2)CN1C(=O)c1cc2ccccc2[nH]1    9200
CC1CCC(CC(=O)N2C[C@H]3[C@@H]([C@H]2C(=O)N[C@H](C=O)C[C@@H]2CCNC2=O)C3(C)C)CC1 (some centres undefined)    160

Please state, for each entry, its recorded EC50.
1. CC(C)(C(=O)N1C[C@H]2[C@@H]([C@H]1C(=O)N[C@H](C=O)C[C@@H]1CCNC1=O)C2(C)C)c1ccccc1
2. CC1(C)[C@@H]2[C@@H](C(=O)N[C@H](C=O)C[C@@H]3CCNC3=O)N(C(=O)c3cc4c(F)cccc4[nH]3)C[C@@H]21
3. CC1(C)[C@@H]2[C@@H](C(=O)N[C@H](C=O)C[C@@H]3CCNC3=O)N(C(=O)C3(c4ccccc4)CC3)C[C@@H]21
4. CC(C)c1ccc(F)c2[nH]c(C(=O)N3C[C@H]4[C@@H]([C@H]3C(=O)N[C@H](C=O)C[C@@H]3CCNC3=O)C4(C)C)cc12
5. CC1(C)[C@@H]2[C@@H](C(=O)N[C@H](C=O)C[C@@H]3CCNC3=O)N(C(=O)C3(c4cccc(Cl)c4)CC3)C[C@@H]21
6. CC1(C)[C@@H]2[C@@H](C(=O)N[C@H](C=O)C[C@@H]3CCNC3=O)N(C(=O)C3(O)CCCCC3)C[C@@H]21
7. CC1(C)[C@@H]2[C@@H](C(=O)N[C@H](C=O)C[C@@H]3CCNC3=O)N(C(=O)CC3CCCCC3)C[C@@H]21

343
1800
196
120
90
2200
340

Please state, for each entry, its recorded EC50.
1. CC1(C)[C@@H]2[C@@H](C(=O)N[C@H](C=O)C[C@@H]3CCNC3=O)N(C(=O)c3cc4cccc(F)c4[nH]3)C[C@@H]21
2. CC1(C)[C@@H]2[C@@H](C(=O)N[C@H](C=O)C[C@@H]3CCNC3=O)N(C(=O)c3cc4cccc(Cl)c4[nH]3)C[C@@H]21
3. C[C@@H](C(=O)N1C[C@H]2[C@@H]([C@H]1C(=O)N[C@H](C=O)C[C@@H]1CCNC1=O)C2(C)C)c1ccccc1
4. Cc1cccc2[nH]c(C(=O)N3C[C@H]4[C@@H]([C@H]3C(=O)N[C@H](C=O)C[C@@H]3CCNC3=O)C4(C)C)cc12
5. CC(C)c1cccc2[nH]c(C(=O)N3C[C@H]4[C@@H]([C@H]3C(=O)N[C@H](C=O)C[C@@H]3CCNC3=O)C4(C)C)cc12
6. CC(C)Oc1cccc2[nH]c(C(=O)N3C[C@H]4[C@@H]([C@H]3C(=O)N[C@H](C=O)C[C@@H]3CCNC3=O)C4(C)C)cc12
7. C[C@H](C(=O)N1C[C@H]2[C@@H]([C@H]1C(=O)N[C@H](C=O)C[C@@H]1CCNC1=O)C2(C)C)C1CCCCC1

[720, 300, 300, 1400, 370, 250, 470]

Please state, for each entry, its recorded EC50.
1. CC1(C)[C@@H]2[C@@H](C(=O)N[C@H](C=O)C[C@@H]3CCNC3=O)N(C(=O)c3cc4ccc(F)cc4[nH]3)C[C@@H]21
2. CC1(C)[C@@H]2[C@@H](C(=O)N[C@H](C=O)C[C@@H]3CCNC3=O)N(C(=O)c3cc4cc(F)ccc4[nH]3)C[C@@H]21
3. CC1(C)[C@@H]2[C@@H](C(=O)N[C@H](C=O)C[C@@H]3CCNC3=O)N(C(=O)C3(c4ccccc4)CCCC3)C[C@@H]21
4. Cc1cccc([C@@H](C)C(=O)N2C[C@H]3[C@@H]([C@H]2C(=O)N[C@H](C=O)C[C@@H]2CCNC2=O)C3(C)C)c1

1: 1800; 2: 4000; 3: 110; 4: 170

Please state, for each entry, its recorded EC50.
1. COc1cccc2[nH]c(C(=O)N3C[C@H]4[C@@H]([C@H]3C(=O)N[C@H](C=O)C[C@@H]3CCNC3=O)C4(C)C)cc12
2. CC1(C)C[C@@H](C(=O)N[C@H](C=O)C[C@@H]2CCNC2=O)N(C(=O)c2cc3ccccc3[nH]2)C1

[8800, 7100]

---

I'd appreciate it if you could supply pEC50 values for the items below.
# Test system: SARS-CoV-2
# TEST_NAME: Antiviral activity against SARS-CoV-2 USA-WA1/2020 infected in human HeLa cells harbouring ACE2 assessed as reduction in cytopathic effect pretreated with cells followed by viral infection and measured after 24 hrs by fluorescence based analysis
# Type: functional, organism-based
# EXPERIMENTAL_CONTEXT: Severe acute respiratory syndrome coronavirus 2, USA-WA1/2020, HeLa
Give bare numbers, as −log10 of the molar value.

Would you please look over these solved cases?
CC(C)(C)CCC(=O)N1C[C@H]2[C@@H]([C@H]1C(=O)N[C@H](C=O)C[C@@H]1CCNC1=O)C2(C)C    6.16
C[C@@H](C(=O)N1C[C@H]2[C@@H]([C@H]1C(=O)N[C@H](C=O)C[C@@H]1CCNC1=O)C2(C)C)C1CCCCC1    6.52
CC1(C)[C@@H]2[C@@H](C(=O)N[C@H](C=O)C[C@@H]3CCNC3=O)N(C(=O)c3cc4cccc(C#N)c4[nH]3)C[C@@H]21    6.39
O=C[C@H](C[C@@H]1CCNC1=O)NC(=O)[C@@H]1C[C@@H](C2CCCCC2)CN1C(=O)c1cc2ccccc2[nH]1    6.11

What pEC50 value was documented for this molecule, "CC(C)c1ccc(Cl)c2[nH]c(C(=O)N3C[C@H]4[C@@H]([C@H]3C(=O)N[C@H](C=O)C[C@@H]3CCNC3=O)C4(C)C)cc12" ? 6.57

Reference source: ChEMBL document CHEMBL5550108
